# Tested on: CBR (tested as CBR2, CBR2opt)
# Construct: mouse codon optimized; pGEX-6P-2, E. coli BL21(DE3)pLysS, GST removed, N-terminal GlyProLeuGlySer kept
# assay_overview: bioluminescence peak-height (V0) kinetics
# Format: biochemical
# recorded_conditions: Mg-ATP, O2; assay details in supplement; read-out: Km (μM) ^4
value_kind: Km

O=C(O)[C@H]1CSC(c2nc3ccc(O)cc3s2)=N1 250 µM
O=C(O)[C@H]1CSC(c2nc3ccc4cc(O)ccc4c3s2)=N1 0.93 µM
Nc1ccc2c(ccc3nc(C4=N[C@@H](C(=O)O)CS4)sc32)c1 0.8 µM
Nc1ccc2nc(C3=N[C@@H](C(=O)O)CS3)sc2c1 9.5 µM

Query block: Endpoint output: Km of "O=C(O)[C@H]1CSC(/C=C/c2nc3ccc(O)cc3s2)=N1" . Value?
Result block: 0.9 µM

* * *

# tested_system: Luc2 (Photinus pyralis)
# Construct: mammalian codon optimized P. pyralis Luc; pGEX-6P-2, E. coli BL21(DE3)pLysS, GST removed, N-terminal GlyProLeuGlySer kept; Mut51 from pET28a (His-tag)
# Sequence (P08659 whole entry): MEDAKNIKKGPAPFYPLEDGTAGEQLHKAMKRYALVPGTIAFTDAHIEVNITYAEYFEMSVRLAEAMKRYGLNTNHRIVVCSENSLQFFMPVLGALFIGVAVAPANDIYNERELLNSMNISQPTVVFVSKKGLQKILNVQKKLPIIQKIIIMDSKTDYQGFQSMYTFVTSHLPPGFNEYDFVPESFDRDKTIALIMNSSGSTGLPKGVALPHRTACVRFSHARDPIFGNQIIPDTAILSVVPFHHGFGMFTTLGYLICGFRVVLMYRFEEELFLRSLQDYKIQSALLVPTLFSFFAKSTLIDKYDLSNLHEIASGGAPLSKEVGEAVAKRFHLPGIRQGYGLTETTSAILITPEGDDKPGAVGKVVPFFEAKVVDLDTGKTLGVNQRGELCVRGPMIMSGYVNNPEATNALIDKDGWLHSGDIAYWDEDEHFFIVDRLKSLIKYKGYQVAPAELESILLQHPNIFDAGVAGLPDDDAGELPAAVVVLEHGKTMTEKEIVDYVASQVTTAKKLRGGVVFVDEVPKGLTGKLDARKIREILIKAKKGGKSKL
# assay_overview: bioluminescence peak-height (V0) kinetics
# Format: biochemical
# recorded_conditions: Mg-ATP, O2; assay details in supplement; read-out: Km (μM) ^4
value_kind: Km

Some solved entries appear below for comparison.
molecule	observed_result
O=C(O)[C@H]1CSC(/C=C/c2nc3ccc(O)cc3s2)=N1 [iLH2]	0.13 µM
Nc1cnc2c(ccc3nc(C4=N[C@@H](C(=O)O)CS4)sc32)c1 [NH2-QLH2]	1.5 µM
Nc1ccc2c(ccc3nc(C4=N[C@@H](C(=O)O)CS4)sc32)c1 [NH2-NpLH2]	3.3 µM

Query block: For the molecule O=C(O)[C@H]1CSC(c2nc3c(Br)cc(O)cc3s2)=N1 [4′-BrLuc] , what Km is on record?
Result block: 44 µM

Query block: Repeat for the following molecule: O=C(O)[C@H]1CSC(c2nc3ccc4cc(O)cnc4c3s2)=N1 [OH-QLH2]
Result block: 1.8 µM

Query block: Now the same for O=C(O)[C@H]1CSC(c2nc3cc4c(cc3s2)NCC4)=N1 [CycLuc1]
Result block: 0.61 µM

Cited source: paper PMC8910387
